- Test system: SF-295 CNS
- Assay Summary: NCI-60 one-dose screen, 48 h (100 = growth as untreated, 0 = no growth, -100 = all killed)
- Condition Notes: 10 µM unless noted
Compounds without any hit were thinned out: in the full panel of roughly 83,000, 20% have a hit.
Metric Name: growth (%)
All answers are understood in %, so give the number only.

1. Cn1cc(-c2nc(-c3c[nH]c4ccncc34)cs2)c2cc(F)ccc21    -85.9
2. C=C(CNCCc1ccc(O)cc1)[C@@H]1CC[C@]2(CO)CC[C@]3(C)[C@H](CC[C@@H]4[C@@]5(C)CCC(N)C(C)(C)[C@@H]5CC[C@]43C)[C@@H]12 (some centres undefined)    -82
3. COc1ccc(/C=C\c2cc(OC)c(OC)c(OC)c2)cc1OCC(=O)Nc1nc2ccccc2s1    9.97

IN: Which growth is reported for this molecule? CC(C)n1cc(C2=C(c3cccc4ccccc34)C(=O)NC2=O)c2cc(Br)ccc21
OUT: 63.9

Origin of the recorded values: PubChem BioAssay (NCI)
